Data provenance is PubChem BioAssay (NCI).

# Test system: K-562 leukemia
# PROCEDURE_SUMMARY: NCI tumour cell line growth inhibition, 48 h; in the data active = GI50 below about 0.43 µM; inactive = the rest
Outcome (select one): 1 for active, -1 for inactive

Sample answers from the record:
INSERT INTO results (compound, classification) VALUES
  ('COc1ccc(/C=N\Nc2ccc([N+](=O)[O-])cn2)cc1OC', -1),
  ('C=C(OC1C(C)=C2C(C1OC(=O)CCCCCCC)C(C)(OC(C)=O)CC(OC(=O)CCC)C1(O)C2OC(=O)C1(C)O)/C(C)=C/C (configuration not stated)', 1),
  ('O=C(/C=C/c1ccccc1)n1c(-c2ccc(Cl)cc2)nc2ccccc21', -1),
  ('COC(=O)c1cc(O)c2c(c1C(=O)OC)C[C@H]1[C@@H]3CC=C4C[C@@H](O)CC[C@]4(C)[C@H]3CC[C@]21C', -1),
  ('Cc1cc(C)c(Cn2cnc3c(Cl)ncnc32)c(C)c1CCl', -1);

For this compound, state the assay outcome: Cc1cc(CC(C)CC(C)(C)C)n(O)c(=O)c1 (configuration not stated) (tested in a mixture with another compound)
1

Now the same for CCn1c(-c2cc3ccccc3cc2O)nn(C(=O)c2c(Cl)cccc2Cl)c1=S
-1

---

# Test system: UACC-257 melanoma
# PROCEDURE_SUMMARY: NCI tumour cell line growth inhibition, 48 h
MEASURED_PROPERTY: TGI

Illustrative cases are given below, each with its answer.
INSERT INTO results (compound, recorded_value) VALUES
  ('CCOC(=O)CC1(c2cccc3ccccc23)OC(=O)c2ccccc21 (stereo unspecified)', '> 100 µM'),
  ('CC(=O)On1c(-c2ccccc2-c2nc3ccccc3n2OC(C)=O)nc2ccccc21', '> 100 µM'),
  ('CN1C(=O)C(=O)c2cc3c(c4c2c1cc1ccccc14)OCO3', '> 100 µM'),
  ('CC[C@H]1C=CCC[C@@]2(C[C@@H]3CC[C@H]4[C@@H](C(=O)OCCCCCCCCCCCCCCCC(=O)N(CCCN)C[C@@H](O)CCN)[C@@]5(CCC[C@@H](C)O5)NC(=[N+]34)N2)O1', '3.41 µM'),
  ('O=Cc1ccc(-c2ccc(-c3nc4ccccc4o3)cc2)o1', '> 100 µM');

Item under review: Cc1ccc(NC(=O)CSc2nc(=O)[nH]c3nc[nH]c23)cc1 . Reported TGI?
> 100 µM

Now the same for FC(F)(F)c1cccc(-c2nc3ccccc3c3c2[C@@]2(N4CCCC4)CCCC[C@@H]32)c1
> 100 µM

Now the same for CN(C)CCCn1nc(N)c2nc3cc(Cl)ccc3nc21
59.3 µM

Now the same for CC(C)(C)C(=O)OCC1CCC(n2cnc3c(=O)[nH]c(N)nc32)O1 (stereo unspecified)
> 100 µM

Now the same for O=C1C(Cl)C(c2ccccc2O)N1n1cnc2ccccc2c1=O (stereo unspecified)
> 100 µM

Now the same for CC(C)=CCC/C(C)=C/CC/C(C)=C/CC/C(=C/CC/C(C)=C\CC/C(C)=C/CC/C(C)=C/CC/C(C)=C/Cc1cc(O)ccc1O)CO
11.8 µM

Now the same for CC(=O)N=C1N(/C=C2\C(=O)Oc3ccccc3C2=O)C(=O)/C(=C/c2ccc(NC(C)=O)cc2)N1C
> 100 µM

Now the same for O=C(O)Cc1ccc2[nH]c(O)c(C3=Nc4ccccc4C3=O)c2c1
> 100 µM

Now the same for O=C(Nc1cccc(O)c1)C(=O)C(C(=O)c1ccc(Cl)c(Cl)c1)C1OC(=O)c2ccccc21 (stereo unspecified)
55.6 µM

Now the same for O=S(=O)(/N=C(\NO)Nc1ccc(Cl)cc1)c1cccc2nsnc12
> 100 µM

---

# Test system: OVCAR-4 ovarian
# PROCEDURE_SUMMARY: NCI tumour cell line growth inhibition, 48 h; in the data active means GI50 below about 0.43 µM; inactive means the rest
Outcome (select one): Y for active, N for inactive

Sample answers from the record:
INSERT INTO assay_data (molecule, classification) VALUES
  ('COc1cc(-c2nc(-c3nc4ccccc4[nH]3)cc3c2[nH]c2ccccc23)cc(OC)c1OC', 'N'),
  ('CCCC(CCC)C(=O)OCC1(CO)C/C(=C\c2ccc(F)cc2)C(=O)O1 (stereo not given)', 'N'),
  ('CC(C)(C)CC(C)(C)NCc1cc(C(C)(C)C)cc(CNC(C)(C)CC(C)(C)C)c1O', 'N'),
  ('COc1cccc(/C=C/C(=O)c2ccc(Cl)cc2Cl)c1', 'N'),
  ('O=C(/C=C/c1ccccc1)n1c(-c2ccc(Cl)cc2)nc2ccccc21', 'N'),
  ('Cc1nc(N2CCC3(CC2)CO[C@@H](C)[C@H]3N)c(CO)nc1Sc1ccnc(N)c1Cl', 'N');

# next molecule below
For this molecule, state the assay outcome: COc1ccc(OC)c2c1[nH]c(=O)c1c3ncccc3cn21
N

---

# Test system: SK-MEL-5 melanoma
# PROCEDURE_SUMMARY: NCI tumour cell line growth inhibition, 48 h
Below: a set of entries, each annotated with reported GI50.

INSERT INTO assay_data (compound, system, measured_property, recorded_value) VALUES
  ('COc1cccc(/C=C/C(=O)c2ccc(Cl)cc2Cl)c1', 'SK-MEL-5 melanoma', 'GI50', '9.38 µM'),
  ('N#CC1=C(N)NC(N2CCOCC2)=NC12Nc1ccccc1N2', 'SK-MEL-5 melanoma', 'GI50', '15 µM'),
  ('CC(=O)[CH-]C(=O)c1ccccc1.CC(=O)[CH-]C(=O)c1ccccc1.CCOCC[O-].CCOCC[O-].[Ti+4]', 'SK-MEL-5 melanoma', 'GI50', '22.5 µM'),
  ('CCOC(=O)CC1C(COC(=O)NC)OC(n2cnc3c(NC(=O)Nc4ccccc4)ncnc32)C1O[Si](C)(C)C(C)(C)C (stereo not given)', 'SK-MEL-5 melanoma', 'GI50', '5.7 µM');

Next:
Item under review: CCC(CNc1cc(OC)cc2cccnc12)NC1CCCCC1 (stereo not given) . Reported GI50?
15.8 µM

---

# Tested on: SNB-19 CNS
# PROCEDURE_SUMMARY: NCI tumour cell line growth inhibition, 48 h
Below: a set of entries, each annotated with reported GI50.

Item under review: COc1cc(Nc2nc3ccccc3cc2C(=O)Nc2ccc(F)c(F)c2)cc(OC)c1OC . Reported GI50?
3.55 µM

Now the same for N#CCN/C=C\C(=O)c1ccc(Cl)cc1
31.4 µM

Now the same for CCCCCCCCCCC1OC([C@@H](O)CC[C@H](O)C2CC[C@@H](CCCCCCCC(O)CC3=CC(C)OC3=O)O2)CCC1O (some centres undefined)
2.9 µM

Now the same for CCn1c(-c2cc3ccccc3cc2O)nn(C(=O)c2c(Cl)cccc2Cl)c1=S
> 50 µM

Now the same for Cc1cc(C)c(Cn2cnc3c(Cl)ncnc32)c(C)c1CCl
> 100 µM

Now the same for Nc1nc(Cl)c(N=Nc2ccc(Cl)cc2)c(NCC2(CO)CCC2)n1
33.7 µM

Now the same for O=C1/C(=C\c2ccccn2)c2ccccc2N1c1c(Cl)cccc1Cl
2.28 µM

Now the same for C=C1CCC2C(C)(COC(=O)CC)C(OC(=O)CC)CCC2(C)C1C/C=C1/C(=O)OCC1OC(=O)CC (centres undefined)
3.74 µM

Now the same for COc1cc(CNc2ccccc2C(=O)N2CCN(C(=O)c3cc(-c4cc(OC)c(OC)c(OC)c4)n4nc(-c5ccccc5)cc4n3)CC2)cc(OC)c1OC
6.73 µM

---

# Test system: KM20L2 colon
# PROCEDURE_SUMMARY: NCI tumour cell line growth inhibition, 48 h
Below: a set of entries, each annotated with reported TGI.
Quick note: give the figure in µM, leave out the unit.

INSERT INTO measurements (molecule, readout_units, recorded_value) VALUES
  ('FC(F)(F)C1(Br)C(c2ccccc2)=C1c1ccccc1', 'µM', 36.3),
  ('CN(C)C=C1C(Cl)=C(C=O)CC(C=O)=C1Cl', 'µM', 41),
  ('CCOC(=O)C(C)(C)Oc1ccc(/C=C/C(=O)c2ccc(Cl)cc2)cc1', 'µM', 33.7);

Next:
Item under review: C=C(OC1C(C)=C2C(C1OC(=O)CCCCCCC)C(C)(OC(C)=O)CC(OC(=O)CCC)C1(O)C2OC(=O)C1(C)O)/C(C)=C/C (stereo not given) . Reported TGI?
1.23

---

# Tested on: SNB-78 CNS
# PROCEDURE_SUMMARY: NCI tumour cell line growth inhibition, 48 h
Below: a set of entries, each annotated with reported TGI.

INSERT INTO measurements (compound, system, measured_property, recorded_value) VALUES
  ('O=C1CCCCCCCCCCC1CN1CCCCC1 (configuration not stated)', 'SNB-78 CNS', 'TGI', '> 100 µM'),
  ('CC[N+]1(C)CCC(O)(c2ccc(OC)cc2)C(C(=O)c2ccc(OC)cc2)C1 (configuration not stated)', 'SNB-78 CNS', 'TGI', '41.5 µM'),
  ('CC/C(CC(=O)CCC(=O)Nc1ccccc1[N+](=O)[O-])=N/NC(=O)C[n+]1ccccc1', 'SNB-78 CNS', 'TGI', '> 100 µM');

Given the entry CCOC(=N)/C(=C1\OC(N)=C(c2ccc(Cl)cc2)C1=O)c1ccc(Cl)cc1 , what TGI was observed with SNB-78 CNS?
> 100 µM

Now the same for O=C1C(Cl)C(c2ccccc2O)N1n1cnc2ccccc2c1=O (configuration not stated)
> 100 µM

Now the same for C[N+](C)(C)CC(=O)N/N=C(\C(=O)NC1=C(Cl)C(=O)c2ccccc2C1=O)C(C#N)c1csc(-c2ccc([N+](=O)[O-])cc2)n1 (configuration not stated)
> 100 µM

Now the same for O=c1c2cccc3cccc(c4n1CCN=4)c32
> 100 µM

Now the same for CC(C)(C)C1CCC2c3c([nH]c4ccccc34)C3C(=O)N(c4ccccc4)C(=O)C3C2C1 (configuration not stated)
19 µM

Now the same for N#C/C(=C1\SC(N=Nc2ccccc2)C(=O)N1c1ccccc1)c1nc2ccccc2[nH]1 (configuration not stated)
> 100 µM

Now the same for O=[N+]([O-])CCc1cccc([N+](=O)[O-])c1
> 100 µM

Now the same for Cc1c(C(=O)/C=C/c2ccccc2O)c(=O)n(-c2ccccc2)n1C
> 100 µM

Now the same for CSc1n[n+]2c(s1)SCCC2
> 100 µM
